# Experimental target: KRAS G12C (GMPPNP-loaded) and cRAF Ras-binding domain (Homo sapiens, UniProt P01116, C118S/C51S/C80L/G12C)
# Construct: truncated version comprising amino acids 1-169
# Sequence (P01116 1-169 isoform P01116-2 G12C/C51S/C80L/C118S): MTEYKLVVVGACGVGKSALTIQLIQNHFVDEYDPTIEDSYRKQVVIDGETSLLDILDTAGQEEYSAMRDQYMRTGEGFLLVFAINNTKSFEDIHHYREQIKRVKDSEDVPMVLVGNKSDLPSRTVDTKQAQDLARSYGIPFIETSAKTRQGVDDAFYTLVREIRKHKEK
# Assay remarks: Inhibition of KRAS G12C and cRAF binding (AlphaScreen)
# Condition details: KRAS G12C preloaded with GTP analogue GMPPNP, 2 hours preincubation
Observation type: IC50

Completed entries (count: 2):
CO[C@H]1CCN(C/C=C/C(=O)N2CC[C@@H](N(C)c3nc(OC[C@@]45CCCN4C[C@H](F)C5)nc4c(F)c(-c5cccc(Cl)c5C5CC5)ncc34)C2)C1 [Example 210] :: 0.01 to 0.1 µM
CN(c1nc(OCC23CCCN2CCC3)nc2c(F)c(-c3nc(N)cc4cccc(Cl)c34)ncc12)[C@@H]1CCN(C#N)C1 [Example 66] :: 0.01 to 0.1 µM

Value of measured IC50 for the entry CN(c1nc(OC[C@@]23CCCN2C[C@H](F)C3)nc2c(F)c(-c3nc(N)cc4cccc(Cl)c34)ncc12)[C@@H]1CCN(C(=O)/C=C/c2nc(C(C)(C)O)no2)C1 [Example 93] : < 0.01 µM

----------
# Experimental target: KRAS G12C (GMPPNP-loaded) and cRAF Ras-binding domain (Homo sapiens, UniProt P01116, C118S/C51S/C80L/G12C)
# Construct: truncated version comprising amino acids 1-169
# Assay remarks: Inhibition of KRAS G12C and cRAF binding (AlphaScreen)
# Condition details: KRAS G12C preloaded with GTP analogue GMPPNP, 2 hours preincubation
# Text: The ability of compounds of Formula (A), Formula (B) and Formula (C), and pharmaceutically acceptable salts and/or isotopologues thereof, to inhibit activity of the GTP-bound form of KRAS G12C can be tested using methods such as the in vitro assay described in Example 179 below. Example 179 describes determining, for various compounds, the half-maximal inhibition (IC50) of KRAS G12C loaded with GTP analogue GMPPNP from binding to cRaf, as the Ras-binding domain (RBD). […]
pIC50: −log10 of the molar value.
Observation type: pIC50

C#Cc1cccc2[nH]nc(-c3ncc4c(N(C)[C@@H]5CCN(C(=O)C=C)C5)nc(OC[C@@]56CCCN5C[C@H](F)C6)nc4c3F)c12 :: ≤ 6.30
CN(c1nc(OC[C@@]23CCCN2C[C@H](F)C3)nc2c(F)c(-c3cccc(Cl)c3C3CC3)ncc12)[C@@H]1CCN(C(=O)/C=C/CN2[C@@H]3CC[C@H]2COC3)C1 :: 7.00 to 8.00

Value of measured pIC50 for the entry Cc1cc(N)nc(-c2ncc3c(N(C)[C@@H]4CCN(C(=O)C#CCN(C)C)C4)nc(OC[C@@]45CCCN4C[C@H](F)C5)nc3c2F)c1C(F)(F)F : > 8.00

----------
# Experimental target: KRAS G12C (GMPPNP-loaded) and cRAF Ras-binding domain (Homo sapiens, UniProt P01116, C118S/C51S/C80L/G12C)
# Construct: truncated version comprising amino acids 1-169
# Assay remarks: Inhibition of KRAS G12C and cRAF binding (AlphaScreen)
# Condition details: KRAS G12C preloaded with GTP analogue GMPPNP, 2 hours preincubation
pIC50: −log10 of the molar value.
Observation type: pIC50

Value of measured pIC50 for the entry Cc1cc(N)nc(-c2ncc3c(N4CCN(C#N)[C@@H](CC#N)C4)nc(OC[C@@]45CCCN4C[C@H](F)C5)nc3c2F)c1C(F)(F)F [Example 13] : 7.00 to 8.00

Value of measured pIC50 for the entry CN(C)CC#CC(=O)N1CC[C@@H](N(C)c2nc(OC[C@@]34CCCN3C[C@H](F)C4)nc3c(F)c(-c4nc(N)cc5cccc(Cl)c45)ncc23)C1 [Example 91] : 7.00 to 8.00

Value of measured pIC50 for the entry C=CC(=O)N1CC[C@@H](N(C)c2nc(OC[C@@]34CCCN3C[C@H](F)C4)nc3c(F)c(-c4cc(C(F)F)ccc4Cl)ncc23)C1 [Example 251] : ≤ 6.30

----------
# Experimental target: KRAS G12C (GMPPNP-loaded) and cRAF Ras-binding domain (Homo sapiens, UniProt P01116, C118S/C51S/C80L/G12C)
# Construct: truncated version comprising amino acids 1-169
# Assay remarks: Inhibition of KRAS G12C and cRAF binding (AlphaScreen)
# Condition details: KRAS G12C preloaded with GTP analogue GMPPNP, 2 hours preincubation
# Source text: The ability of compounds of Formula (A), Formula (B) and Formula (C), and pharmaceutically acceptable salts and/or isotopologues thereof, to inhibit activity of the GTP-bound form of KRAS G12C can be tested using methods such as the in vitro assay described in Example 179 below. Example 179 describes determining, for various compounds, the half-maximal inhibition (IC50) of KRAS G12C loaded with GTP analogue GMPPNP from binding to cRaf, as the Ras-binding domain (RBD). […]
# key: entry, value: IC50

Completed entries (count: 2):
Cc1ccc(N)nc1-c1ncc2c(N(C)[C@@H]3CCN(C(=O)/C=C/c4nc(C(C)C)no4)C3)nc(OC[C@@]34CCCN3C[C@H](F)C4)nc2c1F :: 10 to 100 nM
CN(CC1CN(C(=O)/C=C/c2nc(C(C)(F)F)no2)C1)c1nc(OC[C@@]23CCCN2C[C@H](F)C3)nc2c(F)c(-c3nc(N)cc4cccc(F)c34)ncc12 :: < 10 nM

Consider now this further compound.
Value of measured IC50 for the entry Cc1nsc(/C=C/C(=O)N2CC(CN(C)c3nc(OC[C@@]45CCCN4C[C@H](F)C5)nc4c3C[C@@H](C)[C@H](c3nc(N)cc(C)c3C(F)(F)F)C4)C2)n1 (single isomer, unassigned) : 10 to 100 nM

----------
# Experimental target: KRAS G12C (GMPPNP-loaded) and cRAF Ras-binding domain (Homo sapiens, UniProt P01116, C118S/C51S/C80L/G12C)
# Construct: truncated version comprising amino acids 1-169
# Assay remarks: Inhibition of KRAS G12C and cRAF binding (AlphaScreen)
# Condition details: KRAS G12C preloaded with GTP analogue GMPPNP, 2 hours preincubation
pIC50: −log10 of the molar value.
# key: entry, value: pIC50

Completed entries (count: 5):
C=CC(=O)N1CC(CN(C)c2nc(OC[C@@]34CCCN3C[C@H](F)C4)nc3c(F)c(-c4nc(N)cc5cccc(F)c45)ncc23)C1 [Example 128] :: ≤ 6.30
CN1CC[C@H]1/C=C/C(=O)N1CC[C@@H](N(C)c2nc(OC[C@@]34CCCN3C[C@H](F)C4)nc3c(F)c(-c4nc(N)cc5cccc(F)c45)ncc23)C1 [Example 135] :: 6.30 to 7.00
Cc1cc(N)nc(-c2ncc3c(N(C)CC4CN(C(=O)/C=C/c5nc(C6CC6)no5)C4)nc(OC[C@@]45CCCN4C[C@H](F)C5)nc3c2F)c1C(F)(F)F [Example 176] :: > 8.00
Cc1noc(/C=C/C(=O)N2CC[C@@H](N(C)c3nc(OC[C@@]45CCCN4C[C@H](F)C5)nc4c3C[C@@H](C)[C@H](c3nc(N)cc(C)c3C(F)(F)F)C4)C2)n1 (single isomer, unassigned) [Example 57] :: > 8.00
Cc1cc(N)nc(-c2ncc3c(N(C)[C@@H]4CCN(C(=O)/C=C/CN(C)C)C4)nc(OC[C@@]45CCCN4C[C@H](F)C5)nc3c2F)c1C(F)(F)F [Example 62] :: 7.00 to 8.00

Value of measured pIC50 for the entry CN(CC1CN(C(=O)/C=C/c2nc(C(C)(C)O)no2)C1)c1nc(OC[C@@]23CCCN2C[C@H](F)C3)nc2c(F)c(-c3nc(N)cc4cccc(F)c34)ncc12 [Example 35] : > 8.00

----------
# key: entry, value: IC50
# Experimental target: KRAS G12C (GMPPNP-loaded) and cRAF Ras-binding domain (Homo sapiens, UniProt P01116, C118S/C51S/C80L/G12C)
# Construct: truncated version comprising amino acids 1-169
# Assay remarks: Inhibition of KRAS G12C and cRAF binding (AlphaScreen)
# Condition details: KRAS G12C preloaded with GTP analogue GMPPNP, 2 hours preincubation

Cc1cc(N)nc(-c2ncc3c(N(C)CC4CN(C(=O)/C=C/c5nc(C(C)C)no5)C4)nc(OC[C@@]45CCCN4C[C@H](F)C5)nc3c2F)c1C1CC1 [Example 175] :: 100 to 500 nM
CN(c1nc(OC[C@@]23CCCN2C[C@H](F)C3)nc2c(F)c(-c3cccc(Cl)c3C3CC3)ncc12)[C@@H]1CCN(C(=O)/C=C/CN2CC[C@H](F)C2)C1 [Example 238] :: 10 to 100 nM
Cc1cc(N)nc([C@H]2Cc3nc(OC[C@@]45CCCN4C[C@H](F)C5)nc(N(C)[C@@H]4CCN(C(=O)/C=C/c5nc(C(C)(C)O)no5)C4)c3C[C@@H]2C)c1C(F)(F)F [Example 94] :: ≥ 500 nM
Cc1cc(N)nc(-c2ncc3c(N(C)[C@@H]4CCN(C(=O)/C=C/c5nc(C(C)(F)F)no5)C4)nc(OC[C@@]45CCCN4C[C@H](F)C5)nc3c2F)c1C(F)(F)F [Example 56] :: < 10 nM

Consider now this further compound.
Value of measured IC50 for the entry Cc1cc(N)nc([C@@H]2Cc3nc(OC[C@@]45CCCN4C[C@H](F)C5)nc(N(C)[C@@H]4CCN(C(=O)/C=C/c5nc(C(C)(C)O)no5)C4)c3C[C@H]2C)c1C(F)(F)F [Example 89] : < 10 nM
